biological target: Kras and SOS1 (biotin-tagged human Kras loaded with GDP, His-tagged human SOS1) (Homo sapiens, UniProt P01116, G12D); construct: made in house; host or cells: E. coli (stated for Kras only); assay: Protein-protein interaction inhibition between Kras and SOS1 (KrasGl2D-SOS PPI) using AlphaScreen; assay type: binding; conditions: AlphaScreen; biotin-tagged human Kras loaded with GDP, His-tagged human SOS1; read-out: KRAS G12D-SOS PPI IC50
Sequence (P01116 1-188 isoform P01116-2 G12D): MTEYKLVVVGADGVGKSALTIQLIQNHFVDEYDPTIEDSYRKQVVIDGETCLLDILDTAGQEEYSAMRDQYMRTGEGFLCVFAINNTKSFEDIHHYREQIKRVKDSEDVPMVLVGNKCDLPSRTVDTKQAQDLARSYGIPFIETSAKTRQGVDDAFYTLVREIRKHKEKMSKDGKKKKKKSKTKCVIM
Starred links: 1 amine or outer side, 2 acyl side, 3 side chain; linkers in the order of their positions; H or OH if unused. Positions of bridges follow the written chain, without caps; N, C: chain ends. Non-standard residues stand in square brackets, D forms with d. Residues, ends and D or L forms follow the SMILES beside them. *: point of attachment. hPhe(3-Cl-4-CF3) = N[C@@H](CCc1ccc(C(F)(F)F)c(Cl)c1)C(=O)O; X53 = O=C([C@H](Cc1cccc(F)c1F)N[*:1])[*:2]; NMeY = CN[C@@H](Cc1ccc(O)cc1)C(=O)O; NMeChg = CN[C@H](C(=O)O)C1CCCCC1; NMeT = CN[C@H](C(=O)O)[C@@H](C)O; NMeD = CN[C@@H](CC(=O)O)C(=O)O; NMeL = CN[C@@H](CC(C)C)C(=O)O; NMeAbu = CC[C@H](NC)C(=O)O; NMeA = CN[C@@H](C)C(=O)O; NMeAib = CNC(C)(C)C(=O)O; Nle = CCCC[C@H](N)C(=O)O; Piperidide = C1CCN(*)CC1; Ac5c = NC1(C(=O)O)CCCC1; Aze = O=C(O)[C@@H]1CCN1; Sar = CNCC(=O)O
MEASUREMENT_LABEL: pIC50
// pIC50: -log10(molar conc.)

Problem: Please look up its pIC50: CCCC[C@@H]1NC(=O)[C@H](Cc2cccc(F)c2F)NC(=O)CN(C)C(=O)[C@H](Cc2ccc(OC)cc2)N(C)C(=O)[C@@H]2CCN2C(=O)[C@H](C)N(C)C(=O)[C@H]([C@@H](C)CC)NC(=O)[C@H](CC)N(C)C(=O)C[C@@H](C(=O)N2CCCCC2)N(C)C(=O)[C@H](CC(C)C)NC(=O)C(C)(C)N(C)C1=O [Compound 1256] ([NMeAbu]I[NMeA][Aze][NMeY](Me)[Sar][X53][Nle][NMeAib]L[NMeD]-Piperidide; lactam N-11)
Solution: 8.04

Problem: Also, CC[C@H](C)[C@@H]1NC(=O)[C@H](CC(C)C)N(C)C(=O)C[C@@H](C(=O)N2CCCCC2)N(C)C(=O)[C@H](C2CCCCC2)N(C)C(=O)C2(CCCC2)NC(=O)[C@@H]2CCCN2C(=O)[C@H](CCc2ccc(C(F)(F)F)c(Cl)c2)NC(=O)CN(C)C(=O)[C@H]([C@@H](C)O)N(C)C(=O)CN(C)C(=O)CN(C)C1=O [Compound 427] ([NMeL]I[Sar][Sar][NMeT][Sar][hPhe(3-Cl-4-CF3)]P[Ac5c][NMeChg][NMeD]-Piperidide; lactam N-11) please.
Solution: 9.15

###

Assignment: determine reported pIC50 for the given molecules.
molecular target: Kras and SOS1 (biotin-tagged human Kras loaded with GDP, His-tagged human SOS1) (Homo sapiens, UniProt P01116, G12D); construct: made in house; host or cells: E. coli (stated for Kras only); test: Protein-protein interaction inhibition between Kras and SOS1 (KrasGl2D-SOS PPI) using AlphaScreen; type: binding; conditions: AlphaScreen; biotin-tagged human Kras loaded with GDP, His-tagged human SOS1; read-out: KRAS G12D-SOS PPI IC50
Starred links: 1 amine or outer side, 2 acyl side, 3 side chain; linkers in the order of their positions; H or OH if unused. Positions of bridges follow the written chain, without caps; N, C: chain ends. Non-standard residues stand in square brackets, D forms with d. Residues, ends and D or L forms follow the SMILES beside them. hPhe(3-Cl-4-CF3) = N[C@@H](CCc1ccc(C(F)(F)F)c(Cl)c1)C(=O)O; X25 = CN([C@@H](Cc1ccc(C(F)F)cc1)C(=O)[*:2])[*:1]; NMedβ3hAla = C[C@H](CC(=O)[*:2])N(C)[*:1]; NMeGly(cPent) = CN[C@H](C(=O)O)C1CCCC1; NMeCha = CN[C@@H](CC1CCCCC1)C(=O)O; NMeD = CN[C@@H](CC(=O)O)C(=O)O; NMeL = CN[C@@H](CC(C)C)C(=O)O; NMeA = CN[C@@H](C)C(=O)O; NMeAib = CNC(C)(C)C(=O)O; dNMeA = CN[C@H](C)C(=O)O; Ac5c = NC1(C(=O)O)CCCC1; Aze = O=C(O)[C@@H]1CCN1; Sar = CNCC(=O)O
Entry type: numeric. Quantity: pIC50, the -log10 of concentration in molar units.

Problem: Look at this molecule and give its reported pIC50. CC[C@H](C)[C@@H]1NC(=O)[C@H](CC(C)C)N(C)C(=O)C[C@@H](C)N(C)C(=O)[C@H](CC(C)C)NC(=O)C(C)(C)N(C)C(=O)[C@H](CC(C)C)NC(=O)[C@H](CCc2ccc(C(F)(F)F)c(Cl)c2)NC(=O)[C@@H](C)N(C)C(=O)[C@H](CC2CCCCC2)N(C)C(=O)[C@@H]2CCN2C(=O)CN(C)C1=O [Compound 1400] (cyclo([Aze][NMeCha][dNMeA][hPhe(3-Cl-4-CF3)]L[NMeAib]L[NMedβ3hAla][NMeL]I[Sar]))
Solution: 6.68

Problem: Repeat with CC[C@H](C)[C@@H]1NC(=O)[C@H](CC(C)C)N(C)C(=O)C[C@@H](C(=O)N(C)C)N(C)C(=O)[C@H](C2CCCC2)N(C)C(=O)C2(CCCC2)NC(=O)[C@H](Cc2ccc(C(F)F)cc2)N(C)C(=O)[C@H](CCc2ccc(C(F)(F)F)c(Cl)c2)NC(=O)CN(C)C(=O)[C@H](CC2CCCCC2)N(C)C(=O)[C@@H]2CCN2C(=O)[C@H](C)N(C)C1=O [Compound 1926] ([NMeL]I[NMeA][Aze][NMeCha][Sar][hPhe(3-Cl-4-CF3)][X25][Ac5c][NMeGly(cPent)][NMeD]-NMe2; lactam N-11)
Solution: 7.68
